Data credit: PubChem BioAssay AID1159580

# RUN_DESCRIPTION: chemical genetic growth profiling, strain panel (AID 1159580);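 also: tested at 20 µM; growth read once vehicle control cultures reached saturation at 30 °C; 1 = growth at the plate median or of vehicle wells; lower values mean less growth of the strain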
# RUN_CONDITIONS: S. cerevisiae deletion strains, growth OD, locus YDL040C, strain nat1
The campaign covered roughly 5,500 compounds. About 2,000 (36%) were called active. Roughly 18% stayed inconclusive and do not appear here. Rule as the data show it: active = normalized growth mostly below about 0.91 (no sharp cut-off); inconclusive = no clear call, values can overlap the other calls; inactive = mostly above about 0.92. Some of the results follow.
Hi there, use one of these labels in your reply, thanks! 1 = active, 0 = inactive

O=C(O)CCCN1C(=O)c2cccc3cccc(c23)C1=O ... 0
C[C@]12C=CC(=O)C=C1CCC1C2C(=O)C[C@@]2(C)C1CC[C@]2(O)C(=O)CO (some centres not stated) ... 0
O=c1cc(-c2ccc(O)cc2)oc2cc(O[C@@H]3O[C@H](CO)[C@@H](O)[C@H](O)[C@H]3O[C@@H]3OC[C@](O)(CO)[C@H]3O)cc(O)c12 ... 0

Prompt: Identify the outcome logged in this assay for the compound shown: Cc1cccc(N(C)C(=S)Oc2ccc3ccccc3c2)c1
Completion: 0

Prompt: Identify the outcome logged in this assay for the compound shown: CC(C)=CCC1=C(O)c2ccccc2C(=O)C1=O
Completion: 1

Prompt: Identify the outcome logged in this assay for the compound shown: Cc1ncc([N+](=O)[O-])n1CCO
Completion: 0

Prompt: Identify the outcome logged in this assay for the compound shown: FC(F)(F)COCC(F)(F)F
Completion: 0

###

# RUN_DESCRIPTION: chemical genetic growth profiling, strain panel (AID 1159580);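 also: tested at 20 µM; growth read once vehicle control cultures reached saturation at 30 °C; 1 = growth at the plate median or of vehicle wells; lower values mean less growth of the strain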
# RUN_CONDITIONS: S. cerevisiae deletion strains, growth OD, locus YOR231W, strain MKK1, active compounds read low
The campaign covered roughly 5,500 compounds. About 2,000 (36%) were called active. Another 18% or so got no clear call; they are omitted. This is one part of the list.
Threshold 1: normalized growth strictly smaller gives condition met, otherwise condition not met.

The following compounds have reported results that may help.
Cc1nn(Cc2cccc(C(=O)O/N=C(/N)c3ccc(Cl)cc3)c2)c(C)c1Br ... condition met
Cn1cnc([N+](=O)[O-])c1Sc1ncnc2nc[nH]c12 ... condition not met
N#C/C(=N/Nc1ccc(Cl)cc1)C(N)=S ... condition met

Prompt: Hi there! Is normalized growth for Cc1cccc(N(C)C(=S)Oc2ccc3ccccc3c2)c1 below 1, do you know?
Completion: condition met

Prompt: Hi there! Is normalized growth for Cc1c(NCN2C(=O)CCC2=O)cc2c(c1[N+](=O)[O-])C(C)(C)CC2(C)C below 1, do you know?
Completion: condition met

Prompt: Hi there! Is normalized growth for CCCCC(=O)N(Cc1ccc(-c2ccccc2-c2nn[nH]n2)cc1)[C@H](C(=O)O)C(C)C below 1, do you know?
Completion: condition met

Prompt: Hi there! Is normalized growth for CCCCc1ccc(N=CNO)c(C)c1 below 1, do you know?
Completion: condition met

Prompt: Hi there! Is normalized growth for COC(=O)c1ccc(Oc2c(C(F)(F)F)oc3cc(O)ccc3c2=O)cc1 below 1, do you know?
Completion: condition met

Prompt: Hi there! Is normalized growth for COc1cc(O)c(C(C)=O)c(O)c1 below 1, do you know?
Completion: condition not met

Prompt: Hi there! Is normalized growth for N#C/C(=N/Nc1ccc(Cl)cc1)C(=O)C1CC1 below 1, do you know?
Completion: condition met

###

# RUN_DESCRIPTION: chemical genetic growth profiling, strain panel (AID 1159580);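 also: tested at 20 µM; growth read once vehicle control cultures reached saturation at 30 °C; 1 = growth at the plate median or of vehicle wells; lower values mean less growth of the strain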
# RUN_CONDITIONS: S. cerevisiae deletion strains, growth OD, locus YAL040C, strain CLN3, active compounds read low
Among all 5,500 compounds or so, about 2,000 (36%) were called active. Another 18% or so got no clear call; they are omitted. Some of the results follow.
ASSAY_METRIC: normalized growth

Before answering, review these 5 worked examples.
Nn1nnc2ccccc21 ... 1.02 (inactive)
CC(=O)[C@H]1CC[C@H]2[C@@H]3CC[C@H]4C[C@H](O)CC[C@]4(C)[C@H]3C(=O)C[C@]12C ... 0.999 (inactive)
Fc1ccc(CN(C2=NCCN2)c2c(Cl)cccc2Cl)cc1 ... 0.945 (inactive)
CN1Cc2c(N)cccc2C(c2ccccc2)C1 (stereo not drawn) ... 0.991 (inactive)
N[C@@H](CCCC(=O)O)C(=O)O ... 1.08 (inactive)

Prompt: Look at this compound and give its reported normalized growth. Cn1cnc([N+](=O)[O-])c1Sc1ncnc2nc[nH]c12
Completion: 1.01 (inactive)

Prompt: Look at this compound and give its reported normalized growth. COc1ccccc1CNCCCCCCNCCCCCCCCNCCCCCCNCc1ccccc1OC
Completion: 1.01 (inactive)

Prompt: Look at this compound and give its reported normalized growth. CC12CCC3C(CCC4=C(O)C(=O)CCC43C)C1CCC2=O (stereo not drawn)
Completion: 0.99 (inactive)

Prompt: Look at this compound and give its reported normalized growth. CCCCN1CCC(n2c(=O)[nH]c3ccccc32)CC1
Completion: 1.01 (inactive)

Prompt: Look at this compound and give its reported normalized growth. Oc1ccc(C2CNCc3sccc32)cc1O (stereo not drawn)
Completion: 1.01 (inactive)
